I'd be grateful if you could share measured TGI for these entries.
System: SN12C renal
assay_comment: NCI tumour cell line growth inhibition, 48 h

Provide each entry's TGI from the list below.
1. CCCCCCCCCCC1OC([C@@H](O)CC[C@H](O)C2CC[C@@H](CCCCCCCC(O)CC3=CC(C)OC3=O)O2)CCC1O (stereo partly specified)
2. N#CC1=C(N)NC(N2CCOCC2)=NC12Nc1ccccc1N2
3. CC(C)C(N)=O
4. S=C(c1c[nH]c2ccccc12)N1CCN(Cc2ccccc2)CC1
5. C[N+](C)(C)CC(=O)N/N=C(\C(=O)NC1=C(Cl)C(=O)c2ccccc2C1=O)C(C#N)c1csc(-c2ccc([N+](=O)[O-])cc2)n1 (stereo unspecified)
6. Cc1c(C(=O)/C=C/c2ccccc2O)c(=O)n(-c2ccccc2)n1C

Output:
1. > 25 µM
2. > 100 µM
3. > 5000 µM
4. 30.1 µM
5. > 100 µM
6. 52.6 µM
